Tested on: human rhabdosarcoma cells
Assay: Recoding via quantification of pRB and P53, rhabdosarcoma cells
Type: cell-based
Conditions: Table 6, peptide in association with PET
Protocol: The cells were first fixed for 20 min with 4% paraformaldehyde/PBS at 4° C. After fixation, the cells were permeabilized in PBS containing 1% Triton X-100 for 15 min. […] For this type of quantification the freeware image analysis ImageJ® software was used. […] Threshold values were determined empirically by selecting a setting, which gave the most accurate binary image for a subset of randomly selected photomicrographs. The cell area was determined by manual delineation on raw fluorescent images. […]
ATTRIBUTE MEASURED: pRB (%)
State just the number; it will be interpreted in %.

Solved cases below.
RVPSTSSTQVDLNAISVLYF (Non-cyclic GFR-binding peptide) [SEQ ID NO: 217] : 18
AASKASSSRVELRSVKIAKV (Non-cyclic GFR-binding peptide) [SEQ ID NO: 210] : 22
AASKASSTPTDLNAISTLYF (Non-cyclic GFR-binding peptide) [SEQ ID NO: 216] : 19
STPPTSSSRVQLSAISMLYL (Non-cyclic GFR-binding peptide) [SEQ ID NO: 212] : 11
RVPSTSSTQVKMSAISMLYL (Non-cyclic GFR-binding peptide) [SEQ ID NO: 213] : 12
KIPKASSSRVRLSSLSTLFF (Non-cyclic GFR-binding peptide) [SEQ ID NO: 215] : 19
GIPEPSSVSQEESSLSTLFF (Non-cyclic GFR-binding peptide) [SEQ ID NO: 214] : 18

Please examine the following record next.
input: Please state recorded pRB (%) (tested on human rhabdosarcoma cells) of KIPKASSTQVRLRPVQIRKI (Non-cyclic GFR-binding peptide) [SEQ ID NO: 211]
output: 19

* * *

The reader will find reported pRB (%) values listed item by item below.
system: human osteosarcoma cells, MG63; assay: Tumor cell recoding via quantification of pRB and p53 (immunofluorescence staining, ImageJ); assay type: cell-based; conditions: Table 6; peptide in association with PET; MG63 cells
Write it as a number; the unit % goes unstated.

Completed entries (count: 5):
KIPKASSVSQKMEPLTMLYY (Non-cyclic GFR-binding peptide) [SEQ ID NO: 208] : 12
GIPEPSSAPTELSATSILYY (Non-cyclic GFR-binding peptide) [SEQ ID NO: 204] : 16
GIPEPSSAPVDLKPLSTLYV (Non-cyclic GFR-binding peptide) [SEQ ID NO: 206] : 12
AASKASSVPQEEEPLPMVYY (Non-cyclic GFR-binding peptide) [SEQ ID NO: 207] : 17
RVPSTSSAPTKMNAISMLYF (Non-cyclic GFR-binding peptide) [SEQ ID NO: 203] : 9

input: // map RVPSTSSVPTGQSAISTLYL (Non-cyclic GFR-binding peptide) [SEQ ID NO: 202] to recorded pRB (%) (system: human osteosarcoma cells, MG63)
output: 10

input: Give pRB (%) (human osteosarcoma cells, MG63) of the following sequence: NDEGLESVPEDLSSLSVLFF (Non-cyclic GFR-binding peptide) [SEQ ID NO: 201]
output: 12

input: Which pRB (%) is reported with human osteosarcoma cells, MG63 for this entry: KIPKASSVPTGGSNITVQIM (Non-cyclic GFR-binding peptide) [SEQ ID NO: 209] ?
output: 11

input: I'm curious: which pRB (%) was measured for STPPTSSVPTELSPISTLYK (Non-cyclic GFR-binding peptide) [SEQ ID NO: 205] tested on human osteosarcoma cells, MG63?
output: 20
